test: PFOA in terminal plasma, lung lavage and tissues 48 h after dust exposure; format: in vivo, rat; conditions: male, RccHan:WIST, rat, lung, inhaled, 164 μg PFOA/kg BW, lung, 48 h, inhalation
MEASUREMENT_KIND: concentration at 48 h (ng/g)
Respond with the bare value in ng/g.

Consider O=C(O)C(F)(F)C(F)(F)C(F)(F)C(F)(F)C(F)(F)C(F)(F)C(F)(F)F [PFOA, Perfluorooctanoic acid] . Its measured concentration at 48 h is 31300

---

test: PFOA in terminal plasma, lung lavage and tissues 48 h after dust exposure; type: in vivo, rat; conditions: male, RccHan:WIST, rat, liver, po, 364 μg PFOA/kg BW, liver, 48 h, oral gavage
MEASUREMENT_KIND: concentration at 48 h (ng/g)
Expressed in ng/g, but write only the number.

Record O=C(O)C(F)(F)C(F)(F)C(F)(F)C(F)(F)C(F)(F)C(F)(F)C(F)(F)F , field concentration at 48 h: 8940
